System: Mycobacterium tuberculosis
run-description: Antimycobacterial activity against Mycobacterium tuberculosis H37Rv by two fold agar dilution method
Assay type: functional

molecule	MIC [µg/mL]
Cc1cccc(C)c1Nc1nnc(CNc2c(C)n(C)n(-c3ccccc3)c2=O)o1	10
Cc1ccc(Nc2nnc(CNc3c(C)n(C)n(-c4ccccc4)c3=O)o2)cc1	12.5
Cc1c(NCc2nnc(Nc3ccccc3)o2)c(=O)n(-c2ccccc2)n1C	10
Cc1c(NCc2nnc(Nc3ccccc3Cl)o2)c(=O)n(-c2ccccc2)n1C	10
NNC(=O)c1ccncc1 [ISONIAZID]	0.78
Cc1c(NCc2nnc(Nc3ccc(Cl)cc3)o2)c(=O)n(-c2ccccc2)n1C	6.25
Cc1c(NCc2nnc(Nc3ccc(S(N)(=O)=O)cc3)o2)c(=O)n(-c2ccccc2)n1C	3.12
Cc1c(NCc2nnc(Nc3ccc(F)cc3)o2)c(=O)n(-c2ccccc2)n1C	0.78
COc1ccc(Nc2nnc(CNc3c(C)n(C)n(-c4ccccc4)c3=O)o2)cc1	12.5
Cc1c(NCc2nnc(Nc3ccc(Br)cc3)o2)c(=O)n(-c2ccccc2)n1C	6.25

The measurements presented in this section are drawn from ChEMBL document CHEMBL1938310.
